# System: CAKI-1 renal
# assay explanation: NCI-60 one-dose screen, 48 h (100 = growth as untreated, 0 = no growth, -100 = all killed)
# condition description: 10 µM unless noted
About 83,000 compounds went through this panel and 20% of them were active in at least one assay; those are over-represented in the sample as a whole. Activity calls are given as the source filed them. Rule for the calls: active = growth percent below 10; inactive = the rest.
The reader will find reported growth values listed item by item below.

Worked cases, growth given:
INSERT INTO assay_data (compound, target_or_test_system, reported_measurement) VALUES
  ('COc1ccc(-c2c(-c3cc(OC)c4c(c3)OCO4)noc2N)cc1', 'CAKI-1 renal', '38.7% (inactive)'),
  ('COc1ccc(-c2ccc(C)n2-c2ccc(-c3nc4ccccc4s3)cc2)cc1', 'CAKI-1 renal', '76% (inactive)');

// next item, growth requested
Given Cc1ccc2nc(Cl)cc(=O)n2c1 , state its recorded growth.
111% (inactive)

----------
# Test system: T-47D breast
# assay explanation: NCI-60 one-dose screen, 48 h
# condition description: 10 µM unless noted
This is part of a sample that, as a whole, favours compounds with a hit. Of some 83,000 tested, about 20% had one in any assay. Calls of active or inactive are those of the source. Rule for the calls: active = growth percent below 10; inactive = the rest.
The reply should be one of these categories: true (1) = active, false (0) = inactive

Please review the following examples before continuing.
INSERT INTO measurements (compound, target_or_test_system, discrete_label) VALUES
  ('Cc1nc2ncccc2nc1Nc1ccc(S(=O)(=O)Nc2cncs2)cc1', 'T-47D breast', 'false (0)'),
  ('ClC(Cl)c1nc(-c2ccccc2)nc2cc(-c3ccccc3)nn12', 'T-47D breast', 'false (0)'),
  ('N/C(=N\S(=O)(=O)c1ccccc1)Nc1nc2ccccc2s1', 'T-47D breast', 'false (0)'),
  ('O=C1c2c(Cl)c(Cl)c(Cl)c(Cl)c2C(=O)C2(Cl)CC=CCC12Cl (stereo not given)', 'T-47D breast', 'true (1)');

Which result was noted for this compound in the test: Cc1nn(-c2ccc([N+](=O)[O-])cc2)c2ncnc(NCCc3ccccc3)c12
false (0)

Now give it for CCN(CC)CCCNc1nccc2ccc(Cl)cc12 too.
false (0)

Now give it for Cc1ccc(NS(=O)(=O)c2cc(C)ccc2C)cc1 too.
false (0)

Now give it for CCCCCCCCCCCCNC(=O)[C@H]1CSC(c2cc3ccccc3s2)N1 (stereo not given in full) too.
false (0)

Now give it for COc1cc(Nc2nc(N[C@H]3CCCC[C@@H]3N)nc3cc[nH]c(=O)c23)cc(OC)c1 too.
false (0)

Now give it for COc1cccc(-c2nc3sccn3c2-c2ccnc(NCCCNS(=O)(=O)c3ccc(F)cc3)c2)c1 too.
true (1)

----------
# System: MOLT-4 leukemia
# assay explanation: NCI-60 one-dose screen, 48 h
# condition description: 10 µM unless noted
About 83,000 compounds went through this panel and 20% of them were active in at least one assay; those are over-represented in the sample as a whole. Active and inactive are the calls of the source. How the source made its calls: active means growth percent below 10; inactive means the rest.
The reply should be one of these categories: 1 (active), -1 (inactive)

Please review the following examples before continuing.
INSERT INTO results (molecule, target_or_test_system, discrete_label) VALUES
  ('COc1ccc2c(c1)cn1c3ccc(OC)cc3[nH]c(=O)c21', 'MOLT-4 leukemia', 1),
  ('O=C(c1ccccc1)C1OC1c1ccc([N+](=O)[O-])cc1 (stereo unspecified)', 'MOLT-4 leukemia', -1);

Which result was noted for this molecule in the test: COc1ccc(C2=Nn3c(nnc3-n3nc(C)cc3C)SC2)cc1
1

Now give it for COc1ccc(/C=C\c2cc(OC)c(OC)c(OC)c2)cc1OC(=O)c1cccc(Cn2cc(CCOC(=O)c3cccc(Cn4nnc5c4C(=O)c4ccccc4C5=O)c3)nn2)c1 too.
-1
